Tested on: Streptococcus pyogenes
Test: Antibacterial activity was determined against gram positive organism, Streptococcus pyogenes (C203)
Type: functional
Observation type: MIC (µg/mL)
The response must be a number in µg/mL with no trailing unit.

Please review the following examples before continuing.
{"columns": ["Compound", "Measure unit", "MIC"],
 "data": [
  ["Cc1c(F)c(N2CCNCC2)cc2c1c(=O)c(C(=O)O)cn2-c1ccc(F)cc1F", "µg/mL", 0.1],
  ["CCNCC1CCN(c2cc3c(c(C)c2F)c(=O)c(C(=O)O)cn3CC)C1 (stereo not drawn)", "µg/mL", 1.6]
]}

Prompt line: If you can, please state the reported MIC value of CCNCC1CCN(c2c(F)c(C)c3c(=O)c(C(=O)O)cn(C4CC4)c3c2F)C1 (stereo not drawn) .
Response line: 0.006
